Origin of values: PubChem BioAssay (NCATS)

# Assay Overview: S16 Schwann cell PMP22 intronic element beta-lactamase assay (AID 624044); also: nearly all actives have a fitted effect of over 15% in size; also: potency is read from the fitted curve at half-maximal effect
# Condition Label: S16 rat Schwann cells, PMP22 element beta-lactamase FRET, 24 h; series mostly up to 38.3 µM
Results filed as inconclusive are left out. Calls of active or inactive are those of the source. Calls follow the shape of the full dose curve. Numbered stars: 1 amine (or outer) side, 2 acyl side, 3 side chain; on linkers, the order of the positions; unused ones are H or OH. Bridge positions count the residues as written; N and C are the ends. Square brackets hold non-standard residues; d marks the D form. Peptide text beside a SMILES is read from it. * marks the point of attachment. ξ: configuration not given here. ΔAla(Z-3-ureido) = NC(=O)N/C=C(\N)C(=O)O; X2 = NC1=NC(O)CC(C(N[*:1])C(=O)[*:2])N1; X1 = NC1=NCCC(C(N[*:1])C(=O)[*:2])N1; ξβ3hOrn = NCCCC(N)CC(=O)*; Dap = NC[CH](N)C(=O)O
Measure: Potency

O=C(O)c1ccccc1-c1c2cc(Br)c(=O)c(Br)c-2oc2c(Br)c(O)c(Br)cc12 :: inactive
O=C1/C(=C\c2cccs2)CCC/C1=C/c1cccs1 :: inactive
O=C(OCC1OC(OC(=O)c2cc(O)c(O)c(OC(=O)c3cc(O)c(O)c(O)c3)c2)[C@@H](OC(=O)c2cc(O)c(O)c(OC(=O)c3cc(O)c(O)c(O)c3)c2)C(OC(=O)c2cc(O)c(O)c(OC(=O)c3cc(O)c(O)c(O)c3)c2)C1OC(=O)c1cc(O)c(O)c(OC(=O)c2cc(O)c(O)c(O)c2)c1)c1cc(O)c(O)c(OC(=O)c2cc(O)c(O)c(O)c2)c1 (some centres not stated) :: 22.4 µM (active)
NCCCC(N)CC(=O)NCC1NC(=O)C(CO)NC(=O)C(N)CNC(=O)C(C2CCN=C(N)N2)NC(=O)/C(=C/NC(N)=O)NC1=O (stereo not drawn) (H-[Dap]S[Dap](ξβ3hOrn)[ΔAla(Z-3-ureido)][X1]; lactam 1-C; configuration not given here) :: inactive

Task: What measured Potency goes with NC(=O)CCC1NC(=O)C(Cc2ccccc2)NC(=O)C(Cc2ccc(O)cc2)NC(=O)CCSSCC(C(=O)N2CCCC2C(=O)NC(CCCN=C(N)N)C(=O)NCC(N)=O)NC(=O)C(CC(N)=O)NC1=O (configuration not stated) ?
Result: inactive

Task: What measured Potency goes with CCC(Oc1ccccc1)C(=O)NC1C(=O)N2C1SC(C)(C)C2C(=O)O (configuration not stated) ?
Result: inactive

Task: What measured Potency goes with NCCCC(N)CC(=O)NC1CNC(=O)C(C2CC(O)N=C(N)N2)NC(=O)/C(=C/NC(N)=O)NC(=O)C(CO)NC(=O)C(CO)NC1=O (stereo not drawn) (ξβ3hOrn-[Dap]SS[ΔAla(Z-3-ureido)][X2]; lactam 1-C; configuration not given here) ?
Result: inactive
